# System: EPHB2
# Condition: concentration: 1 μM, replicates: in singlicate; n = 1;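 also: KINOMEscan kinase panel screen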

Molecule	%Inh (%)
Nc1cccc(-c2ccc3c(N)n[nH]c3c2)c1 [GSK2193613]	0
CN(C)c1ncnc2nc[nH]c12 [SKF-31736]	0
COc1ccc(NC(=O)c2ccoc2)cc1-c1ccc(C(=O)NCC2CC2)cc1 [GW810437]	0
O=C1NC(=O)C(c2ccccc2Cl)=C1Nc1cccc(Cl)c1 [SB-342409]	12
COc1cccc(CC(=O)N2CCc3cc(-c4cn(C)c5ncnc(N)c45)ccc32)c1 [GSK2608899]	14
CS(=O)(=O)c1cccc(CNc2nc(Nc3ccc4c(c3)CCC(=O)N4)ncc2C(F)(F)F)c1	0
Cc1ccc(NC(=O)c2cccc(N3CCCCC3)c2)cc1-c1ccc(C(=O)NCC2CC2)cc1 [GSK1917008]	0
Cc1ccc(O)cc1Nc1ccnc2cc(-c3ccc(CN4CCCCC4)o3)ccc12 [GW557777]	98.9
CCn1cnc2c(NCc3ccccc3)ncnc21 [SKF-96418]	0

----------
# System: PDGFRA
# Condition: concentration: 1 μM, replicates: in singlicate; n = 1
Listing: %Inh of selected molecules
Readout label: %Inh (%)

Molecule	Reported
CN(C)CCOc1ccc(-c2cc(-c3ccc(Cl)c(O)c3)c(-c3ccncc3)[nH]2)cc1.Cl.Cl [SB-684387]	12
CCNc1nccc(-c2c(-c3ccc(F)cc3)ncn2C2CCN(C)CC2)n1	0
Nc1ncc(-c2cn[nH]c2)c2scc(-c3ccc4c(c3)CCN4C(=O)Cc3ccccc3)c12 [GSK2593067]	96
CNc1nccc(-c2ccc3c(N)n[nH]c3c2)n1 [GSK2206003]	13
Nc1cccc(-c2ccc3c(N)n[nH]c3c2)c1 [GSK2193613]	9
Cl.O=C(Nc1ccc(Oc2ccc3[nH]c(NC(=O)c4ccco4)nc3c2)cc1)Nc1cc(C(F)(F)F)ccc1F [GW683134]	92.6
Cc1ccc(C)c(NC(=O)Nc2ccc(C)c(-c3ccc(C(=O)Nc4ccncc4)cc3)c2)c1 [GSK1398473]	80
Cc1ccccc1CC(=O)N1CCc2cc(-c3cn(C)c4ncnc(N)c34)ccc21 [GSK2603346]	64
N#Cc1cnc2cc(-c3cnc(CNCCN4CCOCC4)s3)ccc2c1Nc1ccc(Oc2ccccc2)cc1 [GW664114]	0
CCn1c(-c2nonc2N)nc2c(-c3ccccc3)ncc(OCCCN)c21.O=C(O)C(F)(F)F.O=C(O)C(F)(F)F [GSK260205]	18
O=C(Nc1n[nH]c2nc(-c3ccccc3O)ccc12)C1CC1 [SB-711880]	0
O=C(Nc1n[nH]c2nc(-c3ccccc3)ccc12)C1CC1 [SB-708999]	16
CC(C)c1nc(-c2cccc(NS(=O)(=O)c3c(F)cccc3F)c2)c(-c2ccnc(Nc3ccc(N4CCOCC4)nc3)n2)s1.Cl [GSK1723980]	88
Cl.Cl.NCC(NC(=O)c1cc(-c2cccnc2)c(-c2ccnc3[nH]ccc23)s1)c1ccccc1 (centres unmarked) [GSK1323434]	0
COc1cc(Nc2ccnc3cc(-c4ccncc4)ccc23)cc(OC)c1OC.Cl [GW494610]	73
COc1cccc(C2=C(Nc3cccc(O)c3)C(=O)NC2=O)c1 [SB-390771]	0
COc1cccc(CC(=O)N2CCc3cc(-c4cn(C)c5ncnc(N)c45)ccc32)c1 [GSK2608899]	88
Cc1ccc(O)cc1Nc1ccnc2ccc(C(C)(C)C)cc12 [GW856805]	64
NCCC(NC(=O)c1cc(Br)c(-c2ccnc3[nH]ccc23)s1)c1ccccc1.O=C(O)C(F)(F)F.O=C(O)C(F)(F)F (centres unmarked) [GSK1307810]	25
CN(c1ccc(NC(=O)Nc2cccc(Cl)c2)cc1)c1ccnc(N)n1.Cl [GW830707]	97.5
O=C1NC(=O)C(c2ccccc2Cl)=C1Nc1cccc(Cl)c1 [SB-342409]	0
Cc1ccc(NC(=O)c2cccc(N3CCCCC3)c2)cc1-c1ccc(C(=O)NCC2CC2)cc1 [GSK1917008]	34
COc1ccc(C2=C(Nc3cccc(O)c3)C(=O)NC2=O)cc1 [SB-390766]	0
CSc1ccc(NC2=C(c3ccc(Cl)cc3)C(=O)NC2=O)cc1 [SB-317658]	3
CC(C)c1nc(-c2ccc(F)c(NS(=O)(=O)c3c(F)cccc3F)c2)c(-c2ccnc(Nc3ccc(N4CCOCC4)nc3)n2)s1 [GSK1804250]	88
CCOc1nccc(-c2c(-c3ccc(F)cc3)ncn2C2CCNCC2)n1 [SB-249175]	13
O=C(Nc1c(F)cccc1F)c1cc(C(=O)c2ccccc2F)c[nH]1 [GSK1326180]	0
O=C(Nc1n[nH]c2nc(-c3cccc(O)c3)ccc12)C1CC1 [SB-711805]	52
CN1CCN(Cc2ccc(NC(=O)Nc3ccc(N(C)c4ccnc(Nc5ccc(CS(C)(=O)=O)cc5)n4)cc3)cc2)CC1.Cl [GW827654]	99.9
